tested on: Escherichia coli TOP10; experiment: shrunken log2 fold change of peptide-encoding DNA abundance (4.5 h post-induction vs induction); higher = less antimicrobial activity (less host growth inhibition); conditions: time post-induction: 4.5 h; library: site-saturation at positions 5, 18, 19, 20
Label scheme for shrunken log2 fold change: lower than -0.1 is Criterion not met, -0.1 and above is Criterion met.

Is shrunken log2 fold change at least -0.1? Consider "RRIRLRPPRLPRPRPRPICRPRP"
Criterion not met

Is shrunken log2 fold change at least -0.1? Consider "RRIRLRPPRLPRPRPRPWDRPRP"
Criterion met

---

system: Escherichia coli TOP10; experiment: shrunken log2 fold change of peptide-encoding DNA abundance (4.5 h post-induction vs induction); higher = less antimicrobial activity (less host growth inhibition); details: time post-induction: 4.5 h; library: site-saturation at positions 5, 18, 19, 20;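 also: peptides expressed intracellularly from a pBAD plasmid library in pooled LB shake-flask culture, induced with 0.3% L-arabinose, DNA abundance read by NGS, three biological replicates, DESeq2 with apeglm shrinkage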
Recorded shrunken log2 fold change, one value per entry.
Could you respond with only the numeric value?

Look over these answered cases.
{"SEQUENCE CHAIN": "RRIRRRPPRLPRPRPRPFRCPRP", "ASSAY TARGET": "Escherichia coli TOP10", "EXPERIMENTAL VALUE": -0.15}
{"SEQUENCE CHAIN": "RRIRSRPPRLPRPRPRPWKGPRP", "ASSAY TARGET": "Escherichia coli TOP10", "EXPERIMENTAL VALUE": -0.0267}
{"SEQUENCE CHAIN": "RRIRSRPPRLPRPRPRPKNAPRP", "ASSAY TARGET": "Escherichia coli TOP10", "EXPERIMENTAL VALUE": 0.196}

Short answer please: shrunken log2 fold change, Escherichia coli TOP10, entry "RRIRGRPPRLPRPRPRPWHWPRP"
0.424

Short answer please: shrunken log2 fold change, Escherichia coli TOP10, entry "RRIRTRPPRLPRPRPRPQAPPRP"
-0.1

Short answer please: shrunken log2 fold change, Escherichia coli TOP10, entry "RRIRLRPPRLPRPRPRPSVFPRP"
-0.364

Short answer please: shrunken log2 fold change, Escherichia coli TOP10, entry "RRIRLRPPRLPRPRPRPNLKPRP"
-0.367

Short answer please: shrunken log2 fold change, Escherichia coli TOP10, entry "RRIRCRPPRLPRPRPRPPVIPRP"
-0.0627
